Each recorded value in this set is attributed to ChEMBL document CHEMBL1131024.

- measured_on: Protein farnesyltransferase (Bos taurus, UniProt P29702+P49355)
- assay_overview: Inhibition of bovine brain Farnesyltransferase at 10 pM
- run_parameters: in the assay text read “at approximately 1 nM” for “at 10 pM”
experimental_readout: IC50 (nM)

P: CCC[C@H](NC[C@@H](NC[C@@H](N)CS)[C@H](C)CC)C(=O)N[C@@H](CCO)C(=O)O
Q: CC[C@@H](C)[C@@H](CN(C)CC(=O)N[C@@H](CCO)C(=O)O)NC[C@@H](N)CS
Parameter metric = IC50. Return the lower-valued option from P and Q . Please identify the chosen entry by its label.
P

* * *

- Test system: NIH3T3
- assay_overview: Highest nontoxic concentration in NIH3T3 cells by MTT staining
- Format: functional, Mus musculus
experimental_readout: CTE (µM)
Your answer should be a plain number; it is taken to be in µM.

Field: example entries. Status: answers known.
# compound, experimental_readout, numeric_readout
rows = [
    ("CC[C@@H](C)[C@@H](CN(CC(=O)N[C@@H](CCSC)C(=O)OC)Cc1cccc2ccccc12)NC[C@@H](N)CS", "CTE", 5),
    ("CC[C@@H](C)[C@@H](C(=O)N[C@H]1CCOC1=O)N(C)C[C@@H](NC[C@@H](N)CS)[C@H](C)CC", "CTE", 500),
]

Now for a further compound.
# lookup: CCC(C)[C@@H](CN(CC(=O)N[C@@H](CCSC)C(=O)OC)Cc1ccccc1)NC[C@@H](N)CS (some centres undefined) on NIH3T3, CTE = 10
